Here the recorded GI50 is given for each entry.
system: SW-620; test: NCI tumour cell line growth inhibition, 48 h
Calls of active or inactive are those of the source. Cut-off read from the data, not from the text of the source: active = GI50 up to about 1.1 µM and inactive = higher.

>>> result("O=[N+]([O-])c1ccc(CN(CCCl)OCCCl)cc1")
"91.2 µM (inactive)"
>>> result("Cc1nc(C)c(N2CCN(Cc3ccccc3)CC2)c(O)n1")
"> 100 µM (inactive)"
>>> result("C[C@H]1CC[C@@H]2[C@@H](C)[C@H]3[C@H](C[C@H]4[C@@H]5CC=C6C[C@@H](O)CC[C@]6(C)[C@H]5C[C@H](O)[C@]34C)N2C1")
"> 100 µM (inactive)"
>>> result("Cc1ccc(NC(=S)SCCC(=O)O)cc1")
"> 100 µM (inactive)"
>>> result("CC(=O)OCCCCn1cnc2nc(Nc3ccccc3)nc(Cl)c21")
"> 100 µM (inactive)"

Query molecule follows.
Would you kindly share the measured GI50 for CC(OC(=O)C(CC(=O)OC(C)(C)C)NC(=O)OC(C)(C)C)C(=O)OCc1ccccc1 (stereo unspecified) ? > 100 µM (inactive)
